# method.description: Acute toxicity by the digestive route, lethality after one week of observation
# run.conditions: in vivo, po; rat, voie digestive, méthode de Miller et Tainter; read-out: DL50
measurement.label: LD50 at 168 h (mg/kg)
Kindly answer with a numeric value in mg/kg, unit omitted.

State its LD50 at 168 h for this compound: CC(C)OC(=O)N(C(N)=O)c1ccccc1 [SCS 289, phényl-2 allophanate d'isopropyle] 2050

----------
# method.description: Acute toxicity by the digestive route, lethality after one week of observation
# run.conditions: rat, in vivo, po; 500 mg/kg voie digestive; read-out: Pourcentage de létalité Rats
measurement.label: mortality at 168 h (%)
Use % as the unit, but write only the number.

Look up and state reported mortality at 168 h for CC(C)OC(=O)N(C(N)=O)c1ccccc1 [SCS 289, phényl-2 allophanate d'isopropyle] 0

----------
# method.description: Weights test (muscular strength)
# Assay type: in vivo, souris
# run.conditions: mouse, in vivo, po; dose diminishing initial performance by 50 %; read-out: DA50 force musculaire
measurement.label: ED50 at 1 h (mg/kg)
Just the number in mg/kg, nothing appended.

Annotate the compound CC(C)OC(=O)N(C(N)=O)c1ccccc1 [SCS 289, phényl-2 allophanate d'isopropyle] with its measured ED50 at 1 h. 63

----------
# method.description: Acute toxicity by the digestive route, lethality after one week of observation
# run.conditions: rat, in vivo, po; 1000 mg/kg voie digestive; read-out: Pourcentage de létalité Rats
measurement.label: mortality at 168 h (%)
Just the number please, in %, no unit attached.

Read the entry CC(C)OC(=O)N(C(N)=O)c1ccccc1 [SCS 289, phényl-2 allophanate d'isopropyle] and write its reported mortality at 168 h. 15

----------
# method.description: Acute toxicity by the digestive route, lethality after one week of observation
# run.conditions: rat, in vivo, po; 2000 mg/kg voie digestive; read-out: Pourcentage de létalité Rats
measurement.label: mortality at 168 h (%)
I only need the number, in %, no unit after it.

Note down mortality at 168 h recorded for CC(C)OC(=O)N(C(N)=O)c1ccccc1 [SCS 289, phényl-2 allophanate d'isopropyle] 55

----------
# method.description: Narcotic effect
# run.conditions: mouse, in vivo; souris; read-out: DE50 narcotique
measurement.label: ED50

Tell us which ED50 value is on record for CC(C)OC(=O)N(C(N)=O)c1ccccc1 [SCS 289, phényl-2 allophanate d'isopropyle] 1000 to 2000 mg/kg

----------
# method.description: Acute toxicity by the digestive route, lethality after one week of observation
# run.conditions: rat, in vivo, po; 1500 mg/kg voie digestive; read-out: Pourcentage de létalité Rats
measurement.label: mortality at 168 h (%)
I only need the number, in %, no unit after it.

Give me measured mortality at 168 h, please, for this molecule: CC(C)OC(=O)N(C(N)=O)c1ccccc1 [SCS 289, phényl-2 allophanate d'isopropyle] 30

----------
# method.description: Spontaneous motor activity
# Type: in vivo, souris
# run.conditions: mouse, in vivo, po; dose diminishing initial performance by 50 %; read-out: DA50 motricité
measurement.label: ED50 at 1 h
Mention the unit after the number when you answer.

Consider the compound CC(C)OC(=O)N(C(N)=O)c1ccccc1 [SCS 289, phényl-2 allophanate d'isopropyle] and give its recorded ED50 at 1 h. 120 mg/kg

----------
# method.description: Acute toxicity by the digestive route, lethality after one week of observation
# Assay type: in vivo, souris
# run.conditions: mouse, in vivo, po; 1500 mg/kg voie digestive; read-out: Pourcentage de létalité Souris
measurement.label: mortality at 168 h (%)
State just the number; it will be interpreted in %.

Please report the measured mortality at 168 h for CC(C)OC(=O)N(C(N)=O)c1ccccc1 [SCS 289, phényl-2 allophanate d'isopropyle] 0

----------
# method.description: Acute toxicity by the digestive route, lethality after one week of observation
# run.conditions: rat, in vivo, po; 3000 mg/kg voie digestive; read-out: Pourcentage de létalité Rats
measurement.label: mortality at 168 h (%)
The reply should contain only the number, in %.

Provide mortality at 168 h value for the following compound: CC(C)OC(=O)N(C(N)=O)c1ccccc1 [SCS 289, phényl-2 allophanate d'isopropyle] 65

----------
# method.description: Acute toxicity by the digestive route, lethality after one week of observation
# Format: in vivo, souris
# run.conditions: mouse, in vivo, po; 3000 mg/kg voie digestive; read-out: Pourcentage de létalité Souris
measurement.label: mortality at 168 h

Fill in reported mortality at 168 h for this entry: CC(C)OC(=O)N(C(N)=O)c1ccccc1 [SCS 289, phényl-2 allophanate d'isopropyle] 100%

----------
# method.description: Acute toxicity by the digestive route, lethality after one week of observation
# run.conditions: rat, in vivo, po; 3500 mg/kg voie digestive; read-out: Pourcentage de létalité Rats
# Experimental: Des doses croissantes de produit (SCS 289) ont été administrées, par voie digestive, sous forme de suspensions gommeuses, sous le volume de 0,50 ml/20 g de poids corporel chez la souris et 0,50 ml/100 g de poids corporel chez le rat (de 500 à 4000 mg/kg avec des intervalles de 500 mg/kg). […]
measurement.label: mortality at 168 h (%)
Give a bare numeral; the unit % is implied.

Give me measured mortality at 168 h, please, for this compound: CC(C)OC(=O)N(C(N)=O)c1ccccc1 [SCS 289, phényl-2 allophanate d'isopropyle] 80

----------
# method.description: Hole-board test (curiosity, exploratory behaviour)
# Assay type: in vivo, souris
# run.conditions: mouse, in vivo, po, méthode de Miller et Tainter; read-out: DA50 capable de diminuer de 50 % la curiosité de la souris
measurement.label: ED50 at 1 h (mg/kg)
Give the quantity in mg/kg, number only.

Entry CC(C)OC(=O)N(C(N)=O)c1ccccc1 [SCS 289, phényl-2 allophanate d'isopropyle] needs its ED50 at 1 h filled in; supply it. 82.5

----------
# method.description: Acute toxicity by the digestive route, lethality after one week of observation
# Type: in vivo, souris
# run.conditions: mouse, in vivo, po; 2000 mg/kg voie digestive; read-out: Pourcentage de létalité Souris
measurement.label: mortality at 168 h (%)
The reply should be a number in %, with the unit left off.

Look up mortality at 168 h of CC(C)OC(=O)N(C(N)=O)c1ccccc1 [SCS 289, phényl-2 allophanate d'isopropyle] and report it. 20

----------
# method.description: Acute toxicity by the digestive route, lethality after one week of observation
# Assay type: in vivo, souris
# run.conditions: mouse, in vivo, po; 3500 mg/kg voie digestive; read-out: Pourcentage de létalité Souris
measurement.label: mortality at 168 h (%)
Just the number in %, nothing appended.

Give mortality at 168 h for the following compound: CC(C)OC(=O)N(C(N)=O)c1ccccc1 [SCS 289, phényl-2 allophanate d'isopropyle] 100

----------
# method.description: Acute toxicity by the digestive route, lethality after one week of observation
# run.conditions: rat, in vivo, po; 2500 mg/kg voie digestive; read-out: Pourcentage de létalité Rats
measurement.label: mortality at 168 h

Identify measured mortality at 168 h associated with CC(C)OC(=O)N(C(N)=O)c1ccccc1 [SCS 289, phényl-2 allophanate d'isopropyle] 60%

----------
# method.description: Acute toxicity by the digestive route, lethality after one week of observation
# Format: in vivo, souris
# run.conditions: mouse, in vivo, po; 1000 mg/kg voie digestive; read-out: Pourcentage de létalité Souris
measurement.label: mortality at 168 h (%)
Enter your answer as a number in %; do not include the unit.

Return the recorded mortality at 168 h value; entry: CC(C)OC(=O)N(C(N)=O)c1ccccc1 [SCS 289, phényl-2 allophanate d'isopropyle] 0
